- Assay System: recombinant human KLK5 (human) (UniProt Q9Y337)
- Sequence (Q9Y337 67-293): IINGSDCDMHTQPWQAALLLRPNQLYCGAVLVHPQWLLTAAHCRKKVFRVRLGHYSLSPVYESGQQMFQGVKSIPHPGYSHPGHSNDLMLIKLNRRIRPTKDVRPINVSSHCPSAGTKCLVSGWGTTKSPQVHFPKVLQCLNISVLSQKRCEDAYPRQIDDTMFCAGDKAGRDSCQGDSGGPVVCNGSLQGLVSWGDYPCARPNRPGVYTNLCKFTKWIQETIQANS
- Assay Remarks: pro-KLK1 coupled assay, 0.5 nM KLK5
Reported Property: pIC50
# pIC50 = -log10(concentration in molar units)

The binder listed as 10H3 (antibody, V domains shown) VH: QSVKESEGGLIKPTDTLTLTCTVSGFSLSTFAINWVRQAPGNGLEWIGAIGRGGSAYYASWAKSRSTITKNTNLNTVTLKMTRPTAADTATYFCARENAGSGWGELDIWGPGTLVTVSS VL: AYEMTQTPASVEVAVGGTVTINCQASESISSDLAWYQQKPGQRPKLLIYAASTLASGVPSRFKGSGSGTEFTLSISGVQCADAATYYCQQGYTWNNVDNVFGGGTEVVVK shows pIC50 equal to 9.91

The binder listed as 9B6 (antibody, V domains shown) VH: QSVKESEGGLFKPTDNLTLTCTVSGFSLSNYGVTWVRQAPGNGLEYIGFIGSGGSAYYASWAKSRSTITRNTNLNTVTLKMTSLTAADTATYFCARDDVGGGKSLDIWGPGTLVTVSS VL: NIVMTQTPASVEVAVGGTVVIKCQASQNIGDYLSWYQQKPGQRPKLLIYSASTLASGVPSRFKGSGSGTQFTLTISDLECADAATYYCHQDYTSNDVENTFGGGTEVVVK shows pIC50 equal to 10.13

The binder listed as 3-3F5 (antibody, V domains shown) VH: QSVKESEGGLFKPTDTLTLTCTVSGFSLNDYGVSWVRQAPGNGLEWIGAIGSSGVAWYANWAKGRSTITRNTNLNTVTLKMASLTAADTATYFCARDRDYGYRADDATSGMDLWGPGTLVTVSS VL: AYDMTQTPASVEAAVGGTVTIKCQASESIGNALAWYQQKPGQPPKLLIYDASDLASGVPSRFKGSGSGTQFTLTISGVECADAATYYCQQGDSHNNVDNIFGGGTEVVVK shows pIC50 equal to 9.85
